# Target System: JAK2 (Homo sapiens (Human))
# Assay Method Text: In vitro JAK kinase assay (TR-FRET), JAK2
# Test Parameters: catalytic domain aa 826-1132, GST-fusion; ATP 0.2 μM; peptide 20 nM; 30 minutes at room temperature
pIC50: −log10 of the molar value.
Measurement Name: pIC50

Solved entries (count: 5):
N#CCC(=O)N1CCC[C@@H](Oc2nc(-c3cnn4ccccc34)nc(N3CCOCC3)c2F)C1	9.30
COc1nc(-c2cnn3ccccc23)nc(N[C@@H]2CCCN(c3cnc(C#N)cn3)C2)c1F	8.15
O=C(CO)N1CCC[C@@H](Nc2nc(-c3cnn4ccccc34)nc(OCC(F)F)c2F)C1	8.52
CN(C)CCOc1nc(-c2cnn3ccccc23)nc(N[C@H]2CC[C@H](CC#N)CC2)c1F	9.15
CCOC(=O)C1(C)CCN(c2nc(-c3cnn4ccccc34)nc(N[C@@H]3CCCN(C(=O)CO)C3)c2F)CC1	9.10

(a) O=C(CO)N1CCC[C@@H](Oc2nc(-c3cnn4ccccc34)nc(-c3ccnc(CO)c3)c2F)C1
(b) COC[C@@H](C)Oc1nc(-c2cnn3ccccc23)nc(N[C@@H]2CCCN(c3cnc(C#N)cn3)C2)c1F
Exercise: Could you check which of a and b has a smaller value for pIC50? Bench note: the answer is the label of the chosen record.
Key: b

---

# Target System: JAK1 (Homo sapiens (Human))
# Sequence (P23458 850-1154): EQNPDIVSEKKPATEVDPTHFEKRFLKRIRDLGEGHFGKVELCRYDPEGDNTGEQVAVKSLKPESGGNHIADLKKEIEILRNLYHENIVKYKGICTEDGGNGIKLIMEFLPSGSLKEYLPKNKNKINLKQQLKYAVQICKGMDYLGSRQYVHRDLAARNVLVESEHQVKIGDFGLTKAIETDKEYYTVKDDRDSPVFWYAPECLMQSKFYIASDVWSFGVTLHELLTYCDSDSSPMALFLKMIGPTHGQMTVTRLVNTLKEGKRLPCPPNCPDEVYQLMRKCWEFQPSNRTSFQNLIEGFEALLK
# Assay Method Text: In vitro JAK kinase assay (TR-FRET), JAK1
# Assay type: biochemical
# Test Parameters: catalytic domain aa 850-1154, GST-fusion; ATP 3 μM; peptide 60 nM; 30 minutes at room temperature
Measurement Name: IC50 (nM)

N#Cc1nc(-c2cnn3ccccc23)nc(N[C@@H]2CCCN(C(=O)CO)C2)c1F	10
CC(C)Oc1nc(-c2cnn3ccccc23)nc(N[C@@H]2CCCN(C(=O)CO)C2)c1F	36

(A) Cc1ncc(-c2nc(-c3cnn4ccccc34)nc(N[C@@H]3CCCN(C(=O)CO)C3)c2F)cn1
(B) COCCOc1cc(N[C@@H]2CCCN(C(=O)CO)C2)nc(-c2cnn3ccccc23)n1
Exercise: I'm curious, which of these has a smaller IC50 number: A or B ? Record your answer as the label of the chosen record.
Key: B

(A) O=C(CO)N1CCC[C@@H](Oc2nc(-c3cnn4ccccc34)nc(N3CCOCC3)c2F)C1
(B) O=C(CO)N1CCC[C@@H](Oc2nc(-c3cnn4ccccc34)nc(OCCO)c2F)C1
Exercise: Pick one, A or B : lowest reported IC50. Please identify the chosen entry by its label.
Key: A

---

# Target System: JAK2 (Homo sapiens (Human))
# Assay Method Text: In vitro JAK kinase assay (TR-FRET), JAK2
# Test Parameters: catalytic domain aa 826-1132, GST-fusion; ATP 0.2 μM; peptide 20 nM; 30 minutes at room temperature
Measurement Name: IC50 (nM)

CC(C)Oc1nc(-c2cnn3ccccc23)nc(N[C@@H]2CCCN(C(=O)CO)C2)c1F	2

(a) Cc1cc(-c2cc(N[C@@H]3CCCN(C(=O)CC#N)C3)nc(-c3cnn4ccccc34)n2)cc(C)n1
(b) N#CCC(=O)N1CCC[C@@H](Nc2nc(-c3cnn4ccccc34)nc(N3CCC(C(=O)O)CC3)c2F)C1
(c) O=C(CO)N1CCC[C@@H](Oc2nc(-c3cnn4ccccc34)nc(N3CCOCC3)c2F)C1
(d) COC[C@@H](C)Oc1nc(-c2cnn3ccccc23)nc(N[C@@H]2CCCN(C(=O)CO)C2)c1F
(e) N#CC[C@H]1CC[C@H](Nc2nc(-c3cnn4ccccc34)nc(OC[C@@H](O)CO)c2F)CC1
Exercise: Ranking field: IC50; order: falling. Form field (ranking): labels in requested order.
Key: d, a, c, e, b

---

# Target System: JAK2 (Homo sapiens (Human), UniProt O60674)
# Sequence (O60674 826-1132): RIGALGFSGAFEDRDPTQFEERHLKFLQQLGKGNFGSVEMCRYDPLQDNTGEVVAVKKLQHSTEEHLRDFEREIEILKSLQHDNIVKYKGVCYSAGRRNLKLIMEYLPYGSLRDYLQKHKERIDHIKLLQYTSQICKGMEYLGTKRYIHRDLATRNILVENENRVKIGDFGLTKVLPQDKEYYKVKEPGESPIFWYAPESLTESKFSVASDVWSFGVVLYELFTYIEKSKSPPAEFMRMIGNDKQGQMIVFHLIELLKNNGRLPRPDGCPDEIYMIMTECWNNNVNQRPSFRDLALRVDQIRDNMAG
# Assay Method Text: In vitro JAK kinase assay (TR-FRET), JAK2
# Test Parameters: catalytic domain aa 826-1132, GST-fusion; ATP 0.2 μM; peptide 20 nM; 30 minutes at room temperature
Measurement Name: IC50 (nM)

Use these answered entries as a reference point.
CC(C)OC(=O)c1nc(-c2cnn3ccccc23)nc(N[C@@H]2CCCN(C(=O)CO)C2)c1F	1
Cc1ccn2ncc(-c3nc(N[C@@H]4CCCN(C(=O)CO)C4)c(F)c(N4CCOCC4)n3)c2c1	4

(1) O=C(CO)N1CCC[C@@H](Nc2nc(-c3cnn4ccccc34)nc(OCC(F)(F)F)c2F)C1
(2) CCOC(=O)c1ccc(-c2nc(-c3cnn4ccccc34)nc(N[C@@H]3CCCN(C(=O)CO)C3)c2F)cn1
(3) Cc1cc(-c2nc(-c3cnn4ccccc34)nc(N[C@@H]3CCCN(C(=O)CC#N)C3)c2F)ccn1
Exercise: # rank by IC50, ascending (min first) Put the labels in the requested order and write them down.
Key: 3, 2, 1

---

# Target System: JAK1 (Homo sapiens (Human))
# Assay Method Text: In vitro JAK kinase assay (TR-FRET), JAK1
# Test Parameters: catalytic domain aa 850-1154, GST-fusion; ATP 3 μM; peptide 60 nM; 30 minutes at room temperature
Measurement Name: IC50 (nM)

COc1cc(N[C@@H]2CCCN(C(=O)CO)C2)nc(-c2cnn3ccccc23)n1	7
O=C(CO)N1CCC[C@@H](Nc2nc(-c3cnn4ccccc34)nc(N3CCC(CO)CC3)c2F)C1	8
Cc1cc(-c2nc(-c3cnn4ccccc34)nc(O[C@@H]3CCCN(C(=O)CC#N)C3)c2F)ccn1	6

(A) COc1nc(-c2cnn3ccccc23)nc(N[C@@H]2CCCN(C(=O)CO)C2)c1F
(B) COc1ccc(-c2nc(-c3cnn4ccccc34)nc(N[C@@H]3CCCN(C(=O)CO)C3)c2F)cn1
Exercise: Select the item with the higher value of IC50 from the options A and B listed. Answer with the label corresponding to your selection.
Key: A

---

# Target System: UniProt P52333
# Sequence (P52333 795-1124): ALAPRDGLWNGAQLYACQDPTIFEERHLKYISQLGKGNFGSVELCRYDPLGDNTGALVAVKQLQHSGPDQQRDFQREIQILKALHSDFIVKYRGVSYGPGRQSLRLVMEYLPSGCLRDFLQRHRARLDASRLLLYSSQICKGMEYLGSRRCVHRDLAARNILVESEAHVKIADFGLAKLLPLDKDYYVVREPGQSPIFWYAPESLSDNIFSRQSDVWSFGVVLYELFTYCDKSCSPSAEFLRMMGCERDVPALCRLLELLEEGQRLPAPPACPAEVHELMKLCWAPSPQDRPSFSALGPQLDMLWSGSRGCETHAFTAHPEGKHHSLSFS
# Assay Method Text: In vitro JAK kinase assay (TR-FRET), JAK3
# Test Parameters: catalytic domain aa 795-1124, GST-fusion; ATP 0.6 μM; peptide 140 nM; 30 minutes at room temperature
Measurement Name: IC50 (nM)

Look over these answered cases.
CN(C)C1CCN(c2nc(-c3cnn4ccccc34)nc(N[C@H]3CC[C@H](CC#N)CC3)c2F)CC1	4
CC(C)OC(=O)c1nc(-c2cnn3ccccc23)nc(N[C@@H]2CCCN(C(=O)CO)C2)c1F	4
N#CC[C@H]1CC[C@H](Nc2nc(-c3cnn4ccccc34)nc(OCCO)c2F)CC1	2
CCOCCOc1nc(-c2cnn3ccccc23)nc(N[C@@H]2CCCN(C(=O)CO)C2)c1F	4
Cc1cc(-c2nc(-c3cnn4ccccc34)nc(O[C@@H]3CCCN(C(=O)CC#N)C3)c2F)ccn1	6
C[C@H](Nc1nc(-c2cnn3ccccc23)nc(OC[C@@H](O)CO)c1F)c1ncc(F)cn1	4
N#CCC(=O)N1CCC[C@@H](Nc2cc(-c3cncc(O)c3)nc(-c3cnn4ccccc34)n2)C1	1

(A) O=C(CO)N1CCC[C@@H](Nc2nc(-c3cnn4ccccc34)nc(-c3ccnc(CO)c3)c2F)C1
(B) O=C(CO)N1CCC[C@@H](Nc2nc(-c3cnn4ccccc34)nc(O)c2F)C1
(C) COCCOc1nc(-c2cnn3ccccc23)nc(N[C@@H]2CCCN(C(=O)CO)C2)c1C
(D) CN(C)c1ccc(-c2nc(-c3cnn4ccccc34)nc(N[C@@H]3CCCN(C(=O)CO)C3)c2F)cn1
Exercise: Hey, can you sort those compounds up there by IC50, smallest first? Write out the labels following the order that was asked for.
Key: B, D, C, A
